Overview of recorded pIC50 for various compounds
Target: γ-secretase (Aβ(1-42) production in SH-SY5Y neuroblastoma cells overexpressing SPA4CT) (Homo sapiens)
Construct: Human SH-SY5Y neuroblastoma cells overexpressing the direct 7-secretase substrate SPA4CT; endogenous in cells
Assay: Cell-based γ-secretase assay, Aβ(1-42) inhibition
Conditions: overnight incubation, Meso Scale detection of Aβ(42)
pIC50: −log10 of the molar value.

Some compounds with recorded pIC50:
Return pIC50 (reported value) for this compound: COc1ccc(N2CCN(c3nccc(Nc4ccc(-n5cccn5)cc4C)n3)CC2(C)C)cc1 [Example 41]
6.00 to 6.30

Return pIC50 (reported value) for this compound: CCN(CC)c1ccc(Nc2nc(N3CCN(c4ccc(OC)cc4)C(C)(C)C3)ncc2OC)c(C)c1 [Example 25]
> 6.30

Return pIC50 (reported value) for this compound: CCCCc1ccc(Nc2ccnc(N3CCN(c4ccc(OC)cc4)C(C)(C)C3)n2)c(C)c1 [Example 44]
5.52 to 6.00

Next:
Return pIC50 (reported value) for this compound: CCN(CC)c1ccc(Nc2ccnc(N3CCN(c4ccc(OC)c(OC)c4)CC3)n2)c(C)c1 [Example 24]
5.52 to 6.00

Return pIC50 (reported value) for this compound: CCN(CC)c1ccc(Nc2ccnc(N3CCN(c4ccc(OC)cc4)CC3)n2)c(C)c1 [Example 3]
5.52 to 6.00

Return pIC50 (reported value) for this compound: CCN(CC)c1ccc(Nc2nc(N3CCN(c4ccc(OC)cc4)C(C)(C)C3)ncc2F)c(C)c1 [Example 18]
> 6.30
